Attribution: paper PMC2756588

- experimentalTarget: T1, Sla1-3, P32790
- T1 sequence (P32790 344-424, looked up): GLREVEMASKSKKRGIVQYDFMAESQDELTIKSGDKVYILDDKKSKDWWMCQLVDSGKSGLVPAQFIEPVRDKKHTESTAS
- assayProtocol: SPOT array
- protocolConditions: median of control spots 5475
parameter: SPOT intensity
# output: bare number, no unit

Worked set:
binder	SPOT intensity
PAPPPPPRASRPTPN	0
TTNRGPPPLPPRANV	1
RSKRLFPVRPMATAH	36
WRPRIVPILPYITRL	9
SHRLWLYAAPKRPKT	16
DKKTKPTPPPKPSHL	0

Kindly consider the entry below.
Request: Name the recorded SPOT intensity of the item GAGERPRLVPRPINV in your answer.
Result: 0
